Taken from patent US6818426B2.

tested on: recombinant (R)-2,3-butanediol dehydrogenase, HB101 (pSE-PAD1) cell extract; assay: Substrate specificity of recombinant enzyme, oxidation reaction; type: biochemical, Pichia angusta; settings: substrate 50 mM, glycerol = 100%
Param threshold (30%) applies to HB101 (pSE-PAD1) Relative activity; output satisfied when value >= threshold, not satisfied when value < threshold.

Recorded results for 4 molecules are shown here.
- Molecule: "C[C@@H](O)[C@@H](C)O [(2R,3R)-2,3-butanediol]"
  Category label: "satisfied"
- Molecule: "C[C@H](O)[C@H](C)O [(2S,3S)-2,3-butanediol]"
  Category label: "not satisfied"
- Molecule: "C[C@@H](O)CCO [(R)-1,3-butanediol]"
  Category label: "satisfied"
- Molecule: "OC[C@@H](O)CCl [(R)-3-chloro-1,2-propanediol]"
  Category label: "not satisfied"

Q. Test whether the molecule CC(=O)C(C)O (centres unmarked) [3-hydroxy-2-butanone] records HB101 (pSE-PAD1) Relative activity of 30% or higher.
A. not satisfied
